Organism: Rattus norvegicus
assay: Open TG-GATES - Regimen: Daily Repeat
Format: toxicity, organism-based, Sprague-Dawley
Set-up: regimen Daily Repeat, gender Male, age 6 weeks
test-parameters: in vivo, po, 0 mg/kg, […], tissue Plasma, route gavage, dose level Control, time 7 day
measured-parameter: BUN (mg/dL)
Return type: number; implicit unit mg/dL.

BUN for "O=c1ccc2ccccc2o1" is 17.8

Recorded BUN (compound CCCCNC(=O)NS(=O)(=O)c1ccc(C)cc1 [TOLBUTAMIDE] ): 18.2

Kindly note the recorded BUN for "CCN(CC)C(=S)SSC(=S)N(CC)CC" , which is 17.4

Note to self: BUN recorded for CC(S)C(=O)NCC(=O)O (stereo not drawn) was 18.8

What the record says about "O=C(O)c1ccccc1Nc1ccccc1" : BUN is 14.2

More entries:
Value of measured BUN for the entry "CCO" : 20.4

Field BUN (entry NS(=O)(=O)c1cc(C(=O)O)c(NCc2ccco2)cc1Cl [FUROSEMIDE] ) reads 15.6

Quick note, BUN for "CCCCC1C(=O)N(c2ccccc2)N(c2ccccc2)C1=O" landed at 18.8

BUN in this record for "CN(C/C=C/C#CC(C)(C)C)Cc1cccc2ccccc12" : 15.4

Entry CN(CCOc1ccc(CC2SC(=O)NC2=O)cc1)c1ccccn1.O=C(O)/C=C\C(=O)O (stereo not drawn) [ROSIGLITAZONE MALEATE] — recorded BUN = 18.2

For "COc1ccc([C@@H]2Sc3ccccc3N(CCN(C)C)C(=O)[C@@H]2OC(C)=O)cc1" the compound record lists BUN as 14.8

Per the record, "CC(=O)[C@@]1(O)CC[C@H]2[C@@H]3C=C(Cl)C4=CC(=O)CC[C@]4(C)[C@H]3CC[C@@]21C" has BUN of 18.8

Input "Nc1ccc(Cc2ccc(N)cc2)cc1" . Output BUN: 17

----------
Organism: Rattus norvegicus
assay: Open TG-GATES - Regimen: Daily Repeat
Assay type: toxicity, organism-based, Sprague-Dawley
Set-up: regimen Daily Repeat, gender Male, age 6 weeks
test-parameters: in vivo, po, 100 mg/kg, […], tissue Plasma, route gavage, dose level Low, time 28 day
measured-parameter: LDH
Answer shape: numeric part, then the unit.

Entry O=C(O)c1ccccc1Nc1ccccc1 [FENAMIC ACID] , LDH reported as 87 IU/L

Value of LDH reported for the molecule CC(S)C(=O)NCC(=O)O (centres undefined) [TIOPRONIN] is 115.8 IU/L

The reported LDH of the molecule CC(=O)[C@@]1(O)CC[C@H]2[C@@H]3C=C(Cl)C4=CC(=O)CC[C@]4(C)[C@H]3CC[C@@]21C [CHLORMADINONE] was 142 IU/L

Next molecule, LDH to be filled in.
The molecule listed as CCCCNC(=O)NS(=O)(=O)c1ccc(C)cc1 [TOLBUTAMIDE] has a reported LDH of 49.8 IU/L

----------
Species on record: Rattus norvegicus
assay: Open TG-GATES - Regimen: Daily Repeat
Assay type: toxicity, organism-based, Sprague-Dawley
Design: regimen Daily Repeat, gender Male, age 6 weeks
test-parameters: in vivo, po, 1000 mg/kg, […], tissue Kidney, route gavage, dose level High, time 14 day
# KIDNEY_L listing for each entry below
Report only the number, with the unit g understood.

Solved entries:
Sample CC(S)C(=O)NCC(=O)O (centres undefined) [TIOPRONIN] ; KIDNEY_L observed: 1.3

Lab note: O=C(O)c1ccccc1Nc1ccccc1 [FENAMIC ACID] gave KIDNEY_L of 2.1

Lab note: measured KIDNEY_L of CC(=O)[C@@]1(O)CC[C@H]2[C@@H]3C=C(Cl)C4=CC(=O)CC[C@]4(C)[C@H]3CC[C@@]21C [CHLORMADINONE] was 1.1

Turning to the following compound.
The compound identified as CCCCNC(=O)NS(=O)(=O)c1ccc(C)cc1 [TOLBUTAMIDE] registered its KIDNEY_L at 1.2

----------
Parameter: KIDNEY_TOTAL. Scope: all listed entries.
Species: Rattus norvegicus
assay: Open TG-GATES - Regimen: Daily Repeat
Type: toxicity, organism-based, Sprague-Dawley
Design: regimen Daily Repeat, gender Male, age 6 weeks
test-parameters: in vivo, po, 1000 mg/kg, […], tissue Kidney, route gavage, dose level High, time 14 day
Give the value in g but do not write g after it.

Reported KIDNEY_TOTAL ( CC(=O)[C@@]1(O)CC[C@H]2[C@@H]3C=C(Cl)C4=CC(=O)CC[C@]4(C)[C@H]3CC[C@@]21C [CHLORMADINONE] ) = 2.2

Given item O=C(O)c1ccccc1Nc1ccccc1 [FENAMIC ACID] , the value recorded as its KIDNEY_TOTAL is 4

Entry under test: CC(S)C(=O)NCC(=O)O (centres undefined) [TIOPRONIN] . Its KIDNEY_TOTAL was 2.6

Proceed to the following item.
get_value(item= CCCCNC(=O)NS(=O)(=O)c1ccc(C)cc1 [TOLBUTAMIDE] , readout=KIDNEY_TOTAL) returns 2.4

----------
Species: Rattus norvegicus
assay: Open TG-GATES - Regimen: Daily Repeat
Type: toxicity, organism-based, Sprague-Dawley
Design: regimen Daily Repeat, gender Male, age 6 weeks
test-parameters: in vivo, po, 1000 mg/kg, […], tissue Blood, route gavage, dose level High, time 7 day
measured-parameter: Bas (%)
Field format: number, assumed %, no unit text.

Entry under test: CC(S)C(=O)NCC(=O)O (centres undefined) . Its Bas was 0

----------
Species on record: Rattus norvegicus
assay: Open TG-GATES - Regimen: Single
Format: toxicity, organism-based, Sprague-Dawley
Parameters: regimen Single, gender Male, age 6 weeks
test-parameters: in vivo, po, 0 mg/kg, 3 h, tissue Plasma, route gavage, dose level Control
measured-parameter: Cl (meq/L)
Please state the figure in meq/L; there is no need to write the unit.

Here's what some known entries look like.
Kindly note the recorded Cl for "CN(C/C=C/C#CC(C)(C)C)Cc1cccc2ccccc12" , which is 101.8

CC(S)C(=O)NCC(=O)O (stereo unspecified) has a reported Cl of 107

Value of measured Cl for the entry CCCCNC(=O)NS(=O)(=O)c1ccc(C)cc1 [TOLBUTAMIDE] : 106.8

For this compound ( "COc1ccc([C@@H]2Sc3ccccc3N(CCN(C)C)C(=O)[C@@H]2OC(C)=O)cc1" ), measured Cl is 106.8

Quick note, Cl for "CN(C)CCCN1c2ccccc2Sc2ccc(Cl)cc21" landed at 103.2

***
Please fill in: Cl reported for CN(CCOc1ccc(CC2SC(=O)NC2=O)cc1)c1ccccn1.O=C(O)/C=C\C(=O)O (stereo unspecified) [ROSIGLITAZONE MALEATE] = 104.2

Reported Cl for "O=c1ccc2ccccc2o1" was 104.8

----------
Parameter: Neu. Scope: all listed entries.
Species on record: Rattus norvegicus
assay: Open TG-GATES - Regimen: Daily Repeat
Assay type: toxicity, organism-based, Sprague-Dawley
Design: regimen Daily Repeat, gender Male, age 6 weeks
test-parameters: in vivo, po, 300 mg/kg, […], tissue Blood, route gavage, dose level Middle, time 14 day
# output: numeric value plus its unit

# example entries with known answers
Reported Neu of "CC(=O)[C@@]1(O)CC[C@H]2[C@@H]3C=C(Cl)C4=CC(=O)CC[C@]4(C)[C@H]3CC[C@@]21C" : 17.6%

response.value for CCCCNC(=O)NS(=O)(=O)c1ccc(C)cc1 [TOLBUTAMIDE] (field: Neu) = 18.4%

Entry CC(S)C(=O)NCC(=O)O (centres undefined) — recorded Neu = 13.2%

Please examine the following record next.
Quick note, Neu for "O=C(O)c1ccccc1Nc1ccccc1" landed at 16.4%

----------
Organism: Rattus norvegicus
assay: Open TG-GATES - Regimen: Daily Repeat
Assay type: toxicity, organism-based, Sprague-Dawley
Design: regimen Daily Repeat, gender Male, age 6 weeks
test-parameters: in vivo, po, 1000 mg/kg, 72 h, tissue Plasma, route gavage, dose level High, time 3 day
Listing: TC of selected compounds
Numeric only. Scale: mg/dL

Solved entries (count: 3):
Entry "CC(=O)[C@@]1(O)CC[C@H]2[C@@H]3C=C(Cl)C4=CC(=O)CC[C@]4(C)[C@H]3CC[C@@]21C" ; TC = 95.2

Just so you know, measured TC for "O=C(O)c1ccccc1Nc1ccccc1" came out at 67

The compound listed as CCCCNC(=O)NS(=O)(=O)c1ccc(C)cc1 [TOLBUTAMIDE] has a reported TC of 76.8

New cases:
TC for CC(S)C(=O)NCC(=O)O (centres undefined) is 68.6

----------
Organism: Rattus norvegicus
assay: Open TG-GATES - Regimen: Single
Format: toxicity, organism-based, Sprague-Dawley
Parameters: regimen Single, gender Male, age 6 weeks
test-parameters: in vivo, po, 0 mg/kg, 24 h, tissue Plasma, route gavage, dose level Control
measured-parameter: AST
A complete answer gives the number followed by the unit.

Solved cases (5 shown):
Query CN(C/C=C/C#CC(C)(C)C)Cc1cccc2ccccc12 [TERBINAFINE] yields AST of 74.4 IU/L

The reported value for O=c1ccc2ccccc2o1 [COUMARIN] in terms of AST is 64.4 IU/L

Noted for CC(=O)[C@@]1(O)CC[C@H]2[C@@H]3C=C(Cl)C4=CC(=O)CC[C@]4(C)[C@H]3CC[C@@]21C [CHLORMADINONE] : its AST reads 73.6 IU/L

# compound COc1cc2ncnc(Nc3ccc(F)c(Cl)c3)c2cc1OCCCN1CCOCC1 [GEFITINIB] ; its AST = 75.8 IU/L

Documented AST of COc1ccc([C@@H]2Sc3ccccc3N(CCN(C)C)C(=O)[C@@H]2OC(C)=O)cc1 [DILTIAZEM] : 77 IU/L

---
For this compound ( CCCCNC(=O)NS(=O)(=O)c1ccc(C)cc1 [TOLBUTAMIDE] ), measured AST is 67 IU/L

For CN(CCOc1ccc(CC2SC(=O)NC2=O)cc1)c1ccccn1.O=C(O)/C=C\C(=O)O (stereo not given) [ROSIGLITAZONE MALEATE] the compound record lists AST as 66.4 IU/L

Query CCO [ALCOHOL] yields AST of 64.8 IU/L

Per the record, NS(=O)(=O)c1cc(C(=O)O)c(NCc2ccco2)cc1Cl [FUROSEMIDE] has AST of 73.4 IU/L

According to the records, this compound "Nc1ccc(Cc2ccc(N)cc2)cc1" displays AST of 74 IU/L

The reported numbers originate from ChEMBL document CHEMBL3885861.
